Molecular target: Mushroom Tyrosinase
Experiment: Inhibitory effects on mushroom tyrosinase (dopachrome, OD490, 15 min)
Format: biochemical
Details: 37° C., 15 min, L-tyrosine substrate

>  <compound>
OC[C@H]1O[C@@H](Oc2cc(O)cc(/C=C/c3ccc(O[C@@H]4O[C@H](CO)[C@@H](O)[C@H](O)[C@H]4O)cc3O)c2)[C@H](O)[C@@H](O)[C@@H]1O [Mulberroside A, mulberroside A]

>  <IC50 (µM)>
9.5

$$$$
>  <compound>
OC[C@H]1O[C@@H](Oc2ccc(O)cc2)[C@H](O)[C@@H](O)[C@@H]1O

>  <IC50 (µM)>
145

$$$$
>  <compound>
Oc1cc(O)cc(/C=C/c2ccc(O)cc2O)c1

>  <IC50 (µM)>
2.4

$$$$

====

Target: Mushroom Tyrosinase
Assay: Extended duration of mushroom tyrosinase inhibition (up to 24 hours)
Format: biochemical
Settings: read-out: IC50 for tyrosinase inhibition after 24 hours incubation; 24 hours incubation
pIC50: −log10 of the molar value.

>  <molecule>
OC[C@H]1O[C@@H](Oc2cc(O)cc(/C=C/c3ccc(O[C@@H]4O[C@H](CO)[C@@H](O)[C@H](O)[C@H]4O)cc3O)c2)[C@H](O)[C@@H](O)[C@@H]1O [Mulberroside A, mulberroside A]

>  <pIC50>
4.70

$$$$
>  <molecule>
Oc1cc(O)cc(/C=C/c2ccc(O)cc2O)c1

>  <pIC50>
5.59

$$$$

====

Below: a set of entries, each annotated with reported Melanin production (%).
Test system: melan-a cell line
Experiment: Melanin production in melan-a cell line
Type: cell-based
Conditions: melan-a cells, 10 μg/mL, 72 hr

>  <compound>
OC[C@H]1O[C@@H](Oc2cc(O)cc(/C=C/c3ccc(O[C@@H]4O[C@H](CO)[C@@H](O)[C@H](O)[C@H]4O)cc3O)c2)[C@H](O)[C@@H](O)[C@@H]1O [Mulberroside A, mulberroside A]

>  <Melanin production (%)>
92.8

$$$$
>  <compound>
O=c1cc(CO)occ1O

>  <Melanin production (%)>
99.4

$$$$
>  <compound>
Oc1cc(O)cc(/C=C/c2ccc(O)cc2O)c1

>  <Melanin production (%)>
88.5

$$$$
>  <compound>
OC[C@H]1O[C@@H](Oc2ccc(O)cc2)[C@H](O)[C@@H](O)[C@@H]1O

>  <Melanin production (%)>
102.0

$$$$

====

Tested on: melan-a cell line
Test: Melanin production in melan-a cell line
Type: cell-based
Conditions: melan-a cells, 50 μg/mL, 72 hr

>  <molecule>
OC[C@H]1O[C@@H](Oc2cc(O)cc(/C=C/c3ccc(O[C@@H]4O[C@H](CO)[C@@H](O)[C@H](O)[C@H]4O)cc3O)c2)[C@H](O)[C@@H](O)[C@@H]1O [Mulberroside A, mulberroside A]

>  <Melanin production (%)>
61.2

$$$$
>  <molecule>
Oc1cc(O)cc(/C=C/c2ccc(O)cc2O)c1

>  <Melanin production (%)>
60.3

$$$$
>  <molecule>
O=c1cc(CO)occ1O

>  <Melanin production (%)>
95.1

$$$$
>  <molecule>
OC[C@H]1O[C@@H](Oc2ccc(O)cc2)[C@H](O)[C@@H](O)[C@@H]1O

>  <Melanin production (%)>
100.4

$$$$

====

Target: Human Tyrosinase (Homo sapiens, UniProt P14679)
Construct: endogenous in cells
Sequence (P14679 19-529): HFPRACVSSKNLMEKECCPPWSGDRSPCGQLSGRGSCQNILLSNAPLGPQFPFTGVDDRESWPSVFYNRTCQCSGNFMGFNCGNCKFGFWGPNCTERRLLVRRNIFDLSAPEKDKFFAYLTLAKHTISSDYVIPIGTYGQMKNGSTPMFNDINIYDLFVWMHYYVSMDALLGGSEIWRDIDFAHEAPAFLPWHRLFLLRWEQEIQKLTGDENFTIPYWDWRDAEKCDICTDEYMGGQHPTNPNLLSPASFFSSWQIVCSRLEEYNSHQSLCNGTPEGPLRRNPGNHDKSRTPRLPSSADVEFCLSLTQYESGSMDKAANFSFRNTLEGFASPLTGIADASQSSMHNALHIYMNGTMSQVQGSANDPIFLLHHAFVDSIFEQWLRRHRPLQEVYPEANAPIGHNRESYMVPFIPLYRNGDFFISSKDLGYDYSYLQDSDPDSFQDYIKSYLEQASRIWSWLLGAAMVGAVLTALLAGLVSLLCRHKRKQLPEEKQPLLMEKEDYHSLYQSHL
Assay: Inhibitory effects on human tyrosinase prepared from HM3KO human melanoma cells
pIC50: −log10 of the molar value.

>  <compound>
OC[C@H]1O[C@@H](Oc2cc(O)cc(/C=C/c3ccc(O[C@@H]4O[C@H](CO)[C@@H](O)[C@H](O)[C@H]4O)cc3O)c2)[C@H](O)[C@@H](O)[C@@H]1O [Mulberroside A, mulberroside A]

>  <pIC50>
4.11

$$$$
